These entries and their values trace back to ChEMBL document CHEMBL1127572.

- Protocol Text: Solubility (alpha-MEM culture medium, containing 5% fetal calf serum)
- Format: physicochemical
- Reported Conditions: alpha-MEM culture medium with 5% fetal calf serum; read-out: S
Reported solubility maps to class as: lower range: < 0.5 mM; middle range: ≥ 0.5 mM and < 10 mM; upper range: ≥ 10 mM

[in] Lab note: sort O=C(O)c1cc(N(CCCl)CCCl)c([N+](=O)[O-])cc1[N+](=O)[O-] into the matching solubility band.
[out] upper range

[in] Lab note: sort CN(C)CCNC(=O)c1cc(N(CCCl)CCCl)c([N+](=O)[O-])cc1[N+](=O)[O-] into the matching solubility band.
[out] upper range

[in] Lab note: sort CS(=O)(=O)NS(=O)(=O)c1cc(N(CCCl)CCCl)c([N+](=O)[O-])cc1[N+](=O)[O-] into the matching solubility band.
[out] upper range
